B1: RIPK4 (parent)
chain: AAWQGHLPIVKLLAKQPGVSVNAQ

Variants of: B1
METHOD_SUMMARY: protein stability index of a GFP-peptide fusion (GPS, HEK-293T) (PSI 1-6); higher = more stable;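 note: lentivirally expressed fusions sorted by FACS into six bins by GFP to DsRed ratio, PSI derived from sequencing read proportions per bin multiplied by bin number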
ASSAY_CONTEXT: c terminus: a fixed tail appended
PROPERTY_LABEL: protein stability index

• AAWQGHLPIVKLLWKQPGVSVNAQ [A14W] = 1.33
• AAWQGHLPIVKGLAKQPGVSVNAQ [L12G] = 3.67
• AAWHGHLPIVKLLAKQPGVSVNAQ [Q4H] = 3.18
• AAWQGHLPIVKLLAKQPCVSVNAQ [G18C] = 1.72
• AAWQGHLPEVKLLAKQPGVSVNAQ [I9E] = 2.55
• AAWQGHLPIVKLLAKQPGVSVNAT [Q24T] = 1.93
• AAWQGHLPIVKLLAKQAGVSVNAQ [P17A] = 1.51
• ATWQGHLPIVKLLAKQPGVSVNAQ [A2T] = 3.11
• AAWQGHLPIWKLLAKQPGVSVNAQ [V10W] = 3.69
• AAWQGHLPIVKLLAKQPGVSVNHQ [A23H] = 1.79
• AAWQGHLPIVKLLAKQPGPSVNAQ [V19P] = 3.08
• LAWQGHLPIVKLLAKQPGVSVNAQ [A1L] = 1.05
• AAWQGHLPIVKLLAKQPGVSVQAQ [N22Q] = 1.98
• AAWQGHLPIVKLLAKQNGVSVNAQ [P17N] = 2.54
• AAWQGHLPIVKLLAKQPGVSNNAQ [V21N] = 2.99
• AAWQGHLPIVKLLAKCPGVSVNAQ [Q16C] = 2
• ARWQGHLPIVKLLAKQPGVSVNAQ [A2R] = 2.72
• AAWQGHLPIVKLEAKQPGVSVNAQ [L13E] = 4.25
• AAWQGHLPIVKLLAKQPGVSVWAQ [N22W] = 1.36
• AAWYGHLPIVKLLAKQPGVSVNAQ [Q4Y] = 1.51
• AAWQGHLPIVKLLAKQPGVSVNAS [Q24S] = 2.69
• AAWQGHLPIVKTLAKQPGVSVNAQ [L12T] = 3.25
• AAWQGHLPIVGLLAKQPGVSVNAQ [K11G] = 3
• AAWQIHLPIVKLLAKQPGVSVNAQ [G5I] = 1.81
• AAWQGYLPIVKLLAKQPGVSVNAQ [H6Y] = 1.1
• AAWQDHLPIVKLLAKQPGVSVNAQ [G5D] = 2.94
• AAWQGHLPIVKLLACQPGVSVNAQ [K15C] = 1.67
• AAWQGHLPIVKLLAKQPGVSVNNQ [A23N] = 2.92
